# Test system: OATP1B
# test: Effect of rifampicin on plasma AUC0-24h of endogenous compounds
# Type: in vivo, human
# measurement.parameters: +RIF600
parameter: AUC0-24h Geometric Mean Ratio +RIF/Control (90% CI)

compound	result.value
C[C@H](CCC(=O)NCC(=O)O)[C@H]1CC[C@H]2[C@@H]3[C@H](O)C[C@@H]4C[C@H](O[C@@H]5O[C@H](C(=O)O)[C@@H](O)[C@H](O)[C@H]5O)CC[C@]4(C)[C@H]3CC[C@]12C [GCDCA-G, glycochenodeoxycholate‐3‐glucuronide]	~ 15
C[C@H](CCC(=O)NCCS(=O)(=O)O)[C@H]1CC[C@H]2[C@@H]3CC[C@@H]4C[C@H](OS(=O)(=O)O)CC[C@]4(C)[C@H]3CC[C@]12C [TLCA-S, taurolithocholate‐3‐sulfate]	greater than 2
C[C@H](CCC(=O)NCC(=O)O)[C@H]1CC[C@H]2[C@@H]3CC[C@@H]4C[C@H](OS(=O)(=O)O)CC[C@]4(C)[C@H]3C[C@H](O)[C@]12C [GDCA-S, glycodeoxycholate‐3‐sulfate]	greater than 2
C[C@H](CCC(=O)NCC(=O)O)[C@H]1CC[C@H]2[C@@H]3CC[C@@H]4C[C@H](OS(=O)(=O)O)CC[C@]4(C)[C@H]3CC[C@]12C [GLCA-S, glycolithocholate‐3‐sulfate]	greater than 2
